# Test system: HT-29
# protocol-description: NCI tumour cell line growth inhibition, 48 h
Activity calls are given as the source filed them. Cut-off read from the data, not from the text of the source: active = GI50 up to about 1.1 µM and inactive = higher.
recorded-endpoint: GI50

[
  {
    "compound": "O=C1Nc2ccccc2/C1=C1/Nc2ccccc2/C1=N\\OCCOC1OCC(O)C(O)C1O (centres undefined)",
    "endpoint-result": "> 100 µM (inactive)"
  }
]

Inquiry: Please give the measured GI50 for this compound: COc1cc(S(=O)(=O)Nc2ccc(-c3csc(N4C(=O)CSC4c4cccs4)n3)cc2)ccc1Cl (centres undefined)
Reply text: 39.8 µM (inactive)

Inquiry: If you can, please state the reported GI50 value of Cc1ccc(Nc2nc(=O)c3c4ccccc4n(C(=O)OC(C)(C)C)c3s2)cc1 .
Reply text: 30.1 µM (inactive)

Inquiry: Requested read-out: GI50. Entry: C/C(=N\NC(=S)N1CCC(C2CCN(C(=S)N/N=C(\C)c3ccccn3)CC2)CC1)c1ccccn1
Reply text: > 100 µM (inactive)

Inquiry: Endpoint output: GI50 of Cc1nc2c(C)c3c([nH]c4ccc(Cl)cc43)c(C)c2c(O)c1C . Value?
Reply text: 4.37 µM (inactive)

Inquiry: Give its GI50 value. Item: CC(=O)/C(=C/n1ccc(=O)[nH]c1=S)C(=O)Nc1ccccc1C
Reply text: > 100 µM (inactive)

Inquiry: Given C[C@H](CCC1=NCCN1)[C@H]1CC[C@H]2[C@@H]3CC[C@@H]4C[C@H](O)CC[C@]4(C)[C@H]3C[C@H](O)[C@]12C , state its recorded GI50.
Reply text: 10.5 µM (inactive)

Inquiry: Param item = CCC1(CC)C(=O)NN(C(=O)c2ccc(Cl)cc2)C1=O ; retrieve measured GI50.
Reply text: > 100 µM (inactive)

Inquiry: Would you mind telling me what GI50 value was observed for Cc1ccc(S(=O)(=O)N/N=C2/CCC3(O)CC2(C)CCC2[C@H]3CC2(C)C)cc1 (some centres undefined) ?
Reply text: 33.6 µM (inactive)

----------
# Tested on: DU-145
# protocol-description: NCI tumour cell line growth inhibition, 48 h
Active and inactive are the calls of the source. Cut-off read from the data, not from the text of the source: active = GI50 up to about 1.1 µM and inactive = higher.
recorded-endpoint: GI50

Use these answered entries as a reference point.
[
  {
    "compound": "Clc1c(Cl)c(Cl)c2c(nnn2C2CCCO2)c1Cl (stereo not drawn)",
    "system-tested": "DU-145",
    "recorded-endpoint": "GI50",
    "endpoint-result": "51.5 µM (inactive)"
  },
  {
    "compound": "c1ccc2c(c1)[nH]c1c3ccccc3sc21",
    "system-tested": "DU-145",
    "recorded-endpoint": "GI50",
    "endpoint-result": "> 100 µM (inactive)"
  },
  {
    "compound": "COc1cc(S(=O)(=O)Nc2ccc(-c3csc(N4C(=O)CSC4c4cccs4)n3)cc2)ccc1Cl (stereo not drawn)",
    "system-tested": "DU-145",
    "recorded-endpoint": "GI50",
    "endpoint-result": "22.1 µM (inactive)"
  },
  {
    "compound": "CC(C)(C)N(Cc1ccoc1)C(=O)/C=C\\[S+]([O-])c1ccccc1 (stereo not drawn)",
    "system-tested": "DU-145",
    "recorded-endpoint": "GI50",
    "endpoint-result": "12.5 µM (inactive)"
  },
  {
    "compound": "COc1ccc2/c(=C/c3ccc(N(C)C)cc3)c3cc(-c4ccccc4)[n+](C)n3c2c1",
    "system-tested": "DU-145",
    "recorded-endpoint": "GI50",
    "endpoint-result": "0.179 µM (active)"
  },
  {
    "compound": "O=c1c2cc(-c3ccccc3)cnc2sn1-c1ccc(Br)cc1",
    "system-tested": "DU-145",
    "recorded-endpoint": "GI50",
    "endpoint-result": "> 100 µM (inactive)"
  }
]

Inquiry: Entry under review: Cc1ccc2nc(-c3ccccc3)c(N=O)n2c1 . Reported GI50?
Reply text: 46.6 µM (inactive)

Inquiry: If you can, please state the reported GI50 value of Nc1nnc2oc3ccc4ccccc4c3cc1-2 .
Reply text: 56.5 µM (inactive)

----------
# Test system: SK-MEL-28
# protocol-description: NCI tumour cell line growth inhibition, 48 h
Active and inactive are the calls of the source. Rule as the data show it: active = GI50 up to about 1.1 µM and inactive = higher.
Thanks in advance; please answer with one of these: t = active, f = inactive

[
  {
    "compound": "COc1ccc(C(=O)C(c2ccc(OC)cc2)C2(O)C(=O)Nc3ccccc32)cc1 (stereo not given)",
    "label": "f"
  },
  {
    "compound": "CC1CCC2CC1NC(=O)CCOCCC(=O)NC2(C)C (stereo not given)",
    "label": "f"
  },
  {
    "compound": "C=C=C(C)[Si](C)(C)C",
    "label": "f"
  }
]

Inquiry: Recorded test call requested for COc1ccc2/c(=C/c3ccc(N(C)C)cc3)c3cc(-c4ccccc4)[n+](C)n3c2c1
Reply text: t

Inquiry: Answer briefly: the call reported for Cc1cc2[nH]c3c(C#N)c(-c4ccccc4)c(/N=N/c4cccc(C(F)(F)F)c4)c(=O)n3c2cc1C in this assay.
Reply text: f

----------
# Test system: RPMI-8226
# protocol-description: NCI tumour cell line growth inhibition, 48 h
Active and inactive are the calls of the source. No stated cut-off is given here; in the data, active = GI50 up to about 1.1 µM and inactive = higher.
Reported GI50 values follow for various compounds

Inquiry: What does the data say about its GI50? Entry: CCOC(=O)C1=C(C)NC(c2ccccc2)=C(C(=O)OCc2ccccc2)C1C#Cc1ccccc1 (stereo not drawn)
Reply text: > 100 µM (inactive)

Inquiry: Suppose we examine the compound Oc1cc(-c2ccccc2Cl)nc2cc3c(cc12)OCO3 ; what GI50 value has been reported?
Reply text: 0.101 µM (active)

Inquiry: Given the entry CCCCCCC(C)CCCCCCCCCCC(=O)O (stereo not drawn) , report its measured GI50.
Reply text: > 100 µM (inactive)

----------
HCT-15: recorded GI50 for assorted compounds
Field format: number, assumed µM, no unit text.

Sample records with GI50:
[
  {
    "compound": "Cc1cccc2cc3cccc(C(=O)NCCN(C)C)c3nc12",
    "readout-units": "µM",
    "GI50": 0.0993
  },
  {
    "compound": "CC(=O)Nc1ccc(C2=N/C(=C\\c3ccc(Cl)cc3)C(=O)O2)cc1",
    "readout-units": "µM",
    "GI50": 19.9
  },
  {
    "compound": "Oc1cc(-c2ccccc2Cl)nc2cc3c(cc12)OCO3",
    "readout-units": "µM",
    "GI50": 0.0371
  }
]

Inquiry: What measured GI50 goes with CCOc1ccc(Nc2nc3c(s2)C(=O)c2ccccc2C3=O)cc1 ?
Reply text: 2.55

Inquiry: Quick one: GI50 of CC(=O)O[C@@H]1[C@H](OC2CCCCC2(c2ccccc2)c2ccccc2)O[N+]([O-])=CC12CCCCC2 (stereo partly drawn) ?
Reply text: 16

Inquiry: Could you tell me which GI50 is on file for CC(=O)c1cccc(Nc2nc3ccccc3c3occc23)c1 ?
Reply text: 36.4

Inquiry: May I ask what GI50 has been recorded for CCc1nc(N)c2nc(-c3cccs3)oc2n1 ?
Reply text: 86.9

Inquiry: Give its GI50 value. Item: CN(Cc1nc2c(N)nc(N)nc2nc1N)c1ccc(C(=O)NC(CCC(=O)O)C(=O)O)cc1 (stereo not drawn)
Reply text: 0.0708

Inquiry: I have this compound here, O=C1CC(c2c(-c3ccccc3)[nH]c3ccccc23)C(=O)N1c1ccccc1 (stereo not drawn) , and I need its recorded GI50.
Reply text: 61.8

Inquiry: Given the entry O=[N+]([O-])c1ccc(S[C@@H]2[C@H]3c4c(-c5ccccc5)[nH]c(-c5ccccc5)c4[C@@H]2C[C@H]3Cl)cc1 , report its measured GI50.
Reply text: 2.39

Inquiry: Which value of GI50 has been reported for CCCCC(/C=N/NC(=N)N)CC.Cc1cc(O)c(C(C)C)cc1S(=O)(=O)O in the records?
Reply text: 85.7

----------
# System: COLO 205
# protocol-description: NCI tumour cell line growth inhibition, 48 h
The source made the active and inactive calls. Cut-off read from the data, not from the text of the source: active = GI50 up to about 1.1 µM and inactive = higher.
Please reply with one of these outcomes: active, inactive

// below: answered molecules
[
  {
    "molecule": "C=C=C(C)[Si](C)(C)C",
    "label": "inactive"
  },
  {
    "molecule": "Cc1ccc([N+](=O)[O-])cc1NC1=NCCO1",
    "label": "inactive"
  },
  {
    "molecule": "NCC(O)CNC(=O)c1ccc(-c2ccc(-c3ccc(C(=O)NCC(O)CN)cc3)o2)cc1 (configuration not stated)",
    "label": "inactive"
  },
  {
    "molecule": "CC1(C)CC(=O)C(CC2C(=O)c3ccccc3C2=O)C(=O)C1C(=O)C(=O)Nc1cccc2ccc(O)cc12 (configuration not stated)",
    "label": "inactive"
  },
  {
    "molecule": "Cc1ccc(Nc2nc(=O)c3c4ccccc4n(C(=O)OC(C)(C)C)c3s2)cc1",
    "label": "inactive"
  }
]

Inquiry: Please share the test call associated with CO/N=C(/C)c1cccc(Nc2nc3ccccc3c3[nH]c4ccccc4c23)c1 .
Reply text: inactive

Inquiry: Please share the test call associated with CN(/N=C/c1cccs1)c1ccc([N+](=O)[O-])cc1[N+](=O)[O-] .
Reply text: inactive
